- Tested on: M17-SYNwt cells
- protocol_description: α-synuclein cytotoxicity assay (LDH leakage from paraquat-treated α-synuclein over-expressing neuroblastoma cells)
- Type: cell-based, human
- test_context: Homo sapiens, Neuroblastoma cell; paraquat 32 mM, 40 hours, LDH release; 10 point curves in duplicate
measured_attribute: EC50 (µg/mL)
A number alone suffices; assume µg/mL.

Return reported EC50; argument: CC1CN(c2nc(Cc3ccc(Cl)cc3)ns2)CCN1C(=O)/C=C/c1ccccc1 (centres unmarked) [Compound 86]
1.13

Return reported EC50; argument: CC1CN(c2nc(Cc3ccc(F)cc3)ns2)CCN1C(=O)c1ccc(-c2ccccc2)cc1 (centres unmarked) [Compound 129]
0.24

Return reported EC50; argument: CC1CN(c2nc(Cc3ccc(F)cc3)ns2)CCN1C(=O)c1cccc(Br)c1 (centres unmarked) [Compound 142]
0.5

Return reported EC50; argument: Cc1ccc(Cc2nsc(N3CCN(S(=O)(=O)c4ccc(C(C)(C)C)cc4)C(C)C3)n2)cc1 (centres unmarked) [Compound 42]
0.87

Return reported EC50; argument: CC1CN(c2nc(Cc3ccc(Cl)cc3)ns2)CCN1C(=O)c1cccc(F)c1 (centres unmarked) [Compound 125]
0.16

Return reported EC50; argument: CC(=O)Nc1ccc(S(=O)(=O)N2CCN(c3nc(Cc4ccc(C)cc4)ns3)CC2)cc1 [Compound 49]
0.000106

Return reported EC50; argument: CC1CN(c2nc(Cc3ccccc3)ns2)CCN1C(=O)c1cccc(F)c1 (centres unmarked) [Compound 150]
1.14

Return reported EC50; argument: CCc1ccc(C(=O)N2CCN(c3nc(Cc4ccc(C)cc4)ns3)CC2C)cc1 (centres unmarked) [Compound 147]
0.84

Return reported EC50; argument: O=C(c1cccc(F)c1)N1CCN(c2nc(Cc3ccc(Cl)cc3)ns2)CC1 [Compound 157]
1.7

Return reported EC50; argument: COc1ccc(S(=O)(=O)N2CCN(c3nc(Cc4ccc(Cl)cc4)ns3)CC2C)cc1 (centres unmarked) [Compound 51]
0.00135

Return reported EC50; argument: COc1ccc(Cc2nsc(N3CCN(S(=O)(=O)c4ccc(OC)cc4)CC3)n2)cc1 [Compound 205]
0.0011
